Where do the numbers come from? From patent US20260062488A1.

- target entity: T1, human α4β7 integrin (human, UniProt P13612 34-1032; P26010 20-798)
- T1 construct: also called hα4β7; a4b7
- run description: blockade of MAdCAM-1 mediated HuT78 cell adhesion

binder: Ab-h1.5 (antibody, human IgG1, V domains shown) VH: EVQLVQSGAEVKKPGSSVKVSCTTSGFNIKNTYMHWVKQRPGQGLEWIGRIDPANGHTEYAPKFQGKATITADESTNTAYLELSSLRSEDTAVYYCYYVDSWGQGTTVTVSS VL: DIQMTQSPSSLSASVGDRVTITCHASQGISDNIGWLQQKPGKSFKGLIYHGTNLEDGVPSRFSGSGSGADYTLTISSLQPEDFATYYCVQYAQFPWTFGGGTKVEIKR
IC50 / nM: 0.0091

binder: Ab-h1.6 (antibody, human IgG1, V domains shown) VH: EVQLVQSGAEVKKPGSSVKVSCTTSGFNIKNTYMHWVKQRPGQGLEWIGRIDPANGHTEYAPKFQGKATITADESTNTAYLELSSLRSEDTAVYYCYYVDSWGQGTTVTVSS VL: DIQMTQSPSSLSASVGDRVTITCHASQGISDNIGWLQQKPGKSFKLLIYHGTNLEDGVPSRFSGSGSGTDYTLTISSLQPEDFATYYCVQYAQFPWTFGGGTKVEIK
IC50 / nM: 0.0081

binder: Ab-h1.9 (antibody, human IgG1, V domains shown, Humanized, human IgG1 and kappa constant regions; also called Ab-H1.9 (parental)) VH: EVQLVQSGAEVKKPGSSVKVSCKASGFNIKNTYMHWVRQAPGQGLEWIGRIDPANGHTEYAPKFQGRVTITADESTNTAYMELSSLRSEDTAVYYCYYVDSWGQGTTVTVSS VL: DIQMTQSPSSLSASVGDRVTITCHASQGISDNIGWLQQKPGKSFKLLIYHGTNLEDGVPSRFSGSGSGTDYTLTISSLQPEDFATYYCVQYAQFPWTFGGGTKVEIK
IC50 / nM: 0.0114

binder: Ab-h1.8 (antibody, human IgG1, V domains shown) VH: EVQLVQSGAEVKKPGSSVKVSCKASGFNIKNTYMHWVRQAPGQGLEWIGRIDPANGHTEYAPKFQGRVTITADESTNTAYMELSSLRSEDTAVYYCYYVDSWGQGTTVTVSS VL: DIQMTQSPSSLSASVGDRVTITCHASQGISDNIGWLQQKPGKSFKGLIYHGTNLEDGVPSRFSGSGSGADYTLTISSLQPEDFATYYCVQYAQFPWTFGGGTKVEIKR
IC50 / nM: 0.0138
